Data origin: PubChem BioAssay (NCI)

# assay remarks: NCI Yeast Anticancer Drug Screen. Data for the mec2-1 strain (AID 157)
# stated conditions: S. cerevisiae mec2-1 strain, at 11.0 µM, active compounds read high
Compounds without any hit were thinned out: in the full panel of roughly 79,000, 15% have a hit.
Give growth inhibition for every item shown.
Response body: numeric value in %, unit text excluded.

# growth inhibition lookup, item `Cc1ccc(Nc2nc3c(=O)n(C)c(=O)n(C)c3nc2Nc2ccc(C)cc2)cc1`
-2

# growth inhibition lookup, item COc1cc2c(c(OC)c1OC)-c1c(cc3c(c1OC)OCO3)CC(C)C(C)(O)C2OC(=O)c1ccccc1 (stereo not given)
16

# growth inhibition lookup, item `Cc1cc(O)cc(O)c1N=Nc1ccc([N+](=O)[O-])cc1`
8

# growth inhibition lookup, item `CN1Cc2ccccc2/C=C\c2ccccc21`
1

# growth inhibition lookup, item `O=C(Cc1csc2[n+]1C(=O)/C(=C/c1ccc(Cl)cc1)S2)Nc1ccccc1`
13

# growth inhibition lookup, item COc1ccccc1C(=O)OCC1CCCN2CCCCC12 (stereo not given)
0

# growth inhibition lookup, item `CCOC(=O)C1=C(C(=O)c2ccccc2)C(c2ccccc2[N+](=O)[O-])C(C(=O)c2ccccc2)=C(C(=O)OCC)N1`
-3

# growth inhibition lookup, item `CCN(CC)CCN1C(=O)c2cccc3cc(OC)cc(c23)C1=O`
-12

# growth inhibition lookup, item OCC1OC(OCC(O)C(O)C(O)C(/C=N/Nc2ccccc2)=N/Nc2ccccc2)C(O)C(O)C1O (stereo not given)
20

# growth inhibition lookup, item `CN(C)CCOc1ccc2c(c1)C/C(=C/c1ncc([N+](=O)[O-])n1C)C2=O`
53
